- Tested on: C. elegans
- Protocol: microbe, parasite or virus in culture
- Condition Description: Caenorhabditis elegans, 0 h, read-out: Percentage of motility inhibition 0 h, Table S2, C. elegans SS assay, 110 μM, 0 h, averages of 4 data points
The following compounds are listed with their measured inhibition at 110 µM values.
Express the result in % but write the number alone.

[
  {
    "Compound": "O=c1c(O[C@@H]2O[C@H](CO)[C@@H](O)[C@H](O)[C@H]2O)c(-c2ccc(O)c(O)c2)oc2cc(O)cc(O)c12 [Isoquercitrin]",
    "Readout Unit": "%",
    "Measured": 31
  },
  {
    "Compound": "C[C@H](CCC(=O)NCCS(=O)(=O)O)[C@H]1CC[C@H]2[C@@H]3CC[C@@H]4C[C@H](O)CC[C@]4(C)[C@H]3C[C@H](O)[C@]12C [Taurodeoxycholic acid]",
    "Readout Unit": "%",
    "Measured": 0
  },
  {
    "Compound": "OCC1=C[C@@H](O)[C@@H]2C=CO[C@@H](O[C@@H]3O[C@H](CO)[C@@H](O)[C@H](O)[C@H]3O)[C@H]12 [Aucubin]",
    "Readout Unit": "%",
    "Measured": 10
  },
  {
    "Compound": "COc1ccc(-c2cc(=O)c3c(OC)c(OC)c(OC)c(OC)c3o2)cc1 [Tangeretin]",
    "Readout Unit": "%",
    "Measured": 14
  },
  {
    "Compound": "OC[C@H]1NC[C@H](O)[C@@H](O)[C@@H]1O [1‐Deoxynojirimycin]",
    "Readout Unit": "%",
    "Measured": 0
  },
  {
    "Compound": "N[C@@H](CC(=O)O)C(=O)O [L-Aspartic acid]",
    "Readout Unit": "%",
    "Measured": 20
  },
  {
    "Compound": "Cc1onc(-c2ccccc2)c1C(=O)N1CCN(c2ccc([N+](=O)[O-])cc2Cl)CC1 [Nucleozin]",
    "Readout Unit": "%",
    "Measured": 17
  },
  {
    "Compound": "CSCC[C@H](N)C(=O)O [L-Methionine]",
    "Readout Unit": "%",
    "Measured": 0
  },
  {
    "Compound": "O=c1c(O)c(-c2ccccc2)oc2cc(O)cc(O)c12 [Galangin]",
    "Readout Unit": "%",
    "Measured": 10
  },
  {
    "Compound": "c1cncc(C2=NCCC2)c1 [Myosmine]",
    "Readout Unit": "%",
    "Measured": 18
  }
]

### Prompt Give its inhibition at 110 µM value. Item: C[C@@H]1O[C@@H](O[C@H]2[C@H](OC(=O)[C@]34CCC(C)(C)C[C@H]3C3=CC[C@@H]5[C@@]6(C)C[C@H](O)[C@H](O[C@@H]7O[C@H](CO)[C@@H](O)[C@H](O[C@@H]8O[C@H](CO)[C@@H](O)[C@H](O)[C@H]8O)[C@H]7O)C(CO)(CO)[C@@H]6CC[C@@]5(C)[C@]3(C)C[C@H]4O)OC[C@H](O)[C@@H]2O)[C@H](O)[C@H](O)[C@H]1O[C@@H]1OC[C@@H](O)[C@H](O[C@@H]2OC[C@](O)(CO)[C@H]2O)[C@H]1O [Platycodin D2]
### Response 0

### Prompt Give its inhibition at 110 µM value. Item: CC1=C(O)C(=O)C=C2C1=CC=C1[C@@]2(C)CC[C@@]2(C)[C@@H]3C[C@](C)(C(=O)O)CC[C@]3(C)CC[C@]12C [Celastrol]
### Response 0

### Prompt Give its inhibition at 110 µM value. Item: CC(=O)C1C(=O)C=C(C)OC1=O (centres unmarked) [Dehydroacetic acid]
### Response 45

### Prompt Give its inhibition at 110 µM value. Item: C=CCc1ccc(O)c(-c2cc(CC=C)ccc2O)c1 [Magnolol]
### Response 0
